Every entry's value here was drawn from patent US10759794B2.

target: human TASK-3 (Homo sapiens (Human)); experiment: Inhibition of recombinant TASK-3 in stably transfected CHO cells (voltage-sensitive dye, FLIPR); format: cell-based; conditions: depolarization induced by 40 mM potassium chloride, Table 2A
Sequence (Q9NPC2 whole entry): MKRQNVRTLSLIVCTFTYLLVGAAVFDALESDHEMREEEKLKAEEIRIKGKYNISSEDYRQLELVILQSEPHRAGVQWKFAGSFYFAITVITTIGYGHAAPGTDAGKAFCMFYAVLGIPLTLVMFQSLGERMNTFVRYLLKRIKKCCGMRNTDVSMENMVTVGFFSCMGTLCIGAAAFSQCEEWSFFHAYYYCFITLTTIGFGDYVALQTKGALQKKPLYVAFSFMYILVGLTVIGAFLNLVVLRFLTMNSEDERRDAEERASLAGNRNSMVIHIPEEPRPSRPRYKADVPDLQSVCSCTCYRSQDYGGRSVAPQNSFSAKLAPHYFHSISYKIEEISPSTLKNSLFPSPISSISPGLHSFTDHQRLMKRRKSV
metric-name: pIC50
# reply with the number alone; pIC50 is -log10 of concentration in mol/L

Query :: Recall and state the measured pIC50 for O=C(C1CCCCO1)N1CCN(Cc2c(-c3ccc(Cl)cc3)nc3ccccn23)CC1 (centres unmarked) .
Result :: 6.40

Query :: Recall and state the measured pIC50 for `COc1ccc(F)c(C(=O)N2CCN(Cc3c(-c4ccc(C#N)cc4)nc4ccccn34)CC2)c1` .
Result :: 6.46

Query :: Recall and state the measured pIC50 for `CC(C)Oc1cccc(C(=O)N2CCN(Cc3c(-c4ccc(Cl)cc4)nc4ccccn34)CC2)c1` .
Result :: 5.89

Query :: Recall and state the measured pIC50 for `COc1cc(C)cc(C(=O)N2CCN(Cc3c(-c4ccc(Cl)cc4)nc4ccccn34)CC2)n1` .
Result :: 6.11

Query :: Recall and state the measured pIC50 for `COc1ccccc1C(=O)N1CCN(Cc2c(-c3ccc(Br)cc3)nc3ccccn23)CC1` .
Result :: 7.15

Query :: Recall and state the measured pIC50 for `COc1cccc(C(=O)N2CCN(Cc3c(-c4ccc(C(C)(C)C)cc4)nc4ccccn34)CC2)n1` .
Result :: 6.35

Query :: Recall and state the measured pIC50 for `COc1ccccc1C(=O)N1CCN(Cc2c(-c3ccc(F)cc3)nc3ccccn23)CC1` .
Result :: 6.25

Query :: Recall and state the measured pIC50 for `COc1ccc(F)cc1C(=O)N1CCN(Cc2c(-c3ccc(F)cc3)nc3ccccn23)CC1` .
Result :: 5.85
